So I've got a bunch of compounds here, and I need their %Inh values.
# Tested on: GRK4
# Applied Conditions: concentration: 1 μM, replicates: in singlicate; n = 1;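 also: KINOMEscan kinase panel screen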
Output spec: scalar in %, unitless text.

Input line: Item under review: "O=C(Nc1n[nH]c2cc(-c3cccc(F)c3)ccc12)C1CC1" . Reported %Inh?
Output line: 38

Input line: Item under review: "[2H]C([2H])(c1cccc(C(F)(F)F)c1C)n1ccn2c(=O)nc(N3CCOCC3)cc12" . Reported %Inh?
Output line: 0

Input line: Item under review: "COc1cc2ncn(-c3cc(OCc4sccc4Cl)c(C(N)=O)s3)c2cc1OC" . Reported %Inh?
Output line: 30

Input line: Item under review: "NS(=O)(=O)c1cccc(-c2ccc3ncc(N4CCOCC4)nc3c2)c1" . Reported %Inh?
Output line: 0

Input line: Item under review: "COc1ccc(S(=O)(=O)NC2CCN(c3cc(C)nc(Nc4cccc(C#N)c4)n3)CC2)cc1.O=C(O)C(F)(F)F" . Reported %Inh?
Output line: 0

Input line: Item under review: COc1ccc(CNC(=O)NC2CCN(c3ccnc(Nc4ccc(OC)cc4)n3)C2)cc1 (centres unmarked) . Reported %Inh?
Output line: 4

Input line: Item under review: "CC(=O)Nc1ccc(COc2ccc(Nc3ccnc4cc(-c5ccccn5)ccc34)cc2)cc1.Cl" . Reported %Inh?
Output line: 0

Input line: Item under review: "CC(C)Oc1ccc2c(-c3ccnc(Nc4ccc(N5CCN(C)CC5)cc4)n3)cnn2n1" . Reported %Inh?
Output line: 84

Input line: Item under review: "Cl.Oc1cccc(Nc2ccnc3cc(-c4ccncc4)ccc23)c1" . Reported %Inh?
Output line: 0

Input line: Item under review: "Nc1nccc(-c2c(-c3ccc(F)cc3)ncn2C2CCN(CC(F)(F)F)CC2)n1" . Reported %Inh?
Output line: 10

Input line: Item under review: "COc1ccc(COc2cc(-n3cnc4ccccc43)sc2C(N)=O)cc1" . Reported %Inh?
Output line: 1

Input line: Item under review: "COc1cc2c(cc1OC[C@@H](O)CO)ncc1c3ccc(C#N)cc3[nH]c21" . Reported %Inh?
Output line: 73

Input line: Item under review: "COCCNC(=O)c1ccc(-c2cc(C(=O)NC3CC3)cc(F)c2C)cc1" . Reported %Inh?
Output line: 7

Input line: Item under review: "O=c1cc(N2CCOCC2)nc2n(Cc3cccc(Cl)c3Cl)c(C3CC3)nn12" . Reported %Inh?
Output line: 0

Input line: Item under review: "C[C@@H](Oc1cc(-n2cnc3ccc(NC(=O)NC(C)(C)C)cc32)sc1C(N)=O)c1ccccc1Cl" . Reported %Inh?
Output line: 0

Input line: Item under review: "COC(=O)Nc1nc2cc(Oc3ccc(NC(=O)Nc4cc(F)ccc4F)cc3)ccc2[nH]1.Cl" . Reported %Inh?
Output line: 0

Input line: Item under review: "O=C(NCCNc1ccnc(Nc2ccc(F)cc2)n1)Nc1ccccc1F" . Reported %Inh?
Output line: 0

Input line: Item under review: "Cc1cccc(-c2nc(Nc3ccc4ncsc4c3)c3ccccc3n2)n1" . Reported %Inh?
Output line: 0

Input line: Item under review: "Cc1ccc(C(=O)NCC(N)=O)cc1-n1c(C)cc(OCc2ccc(F)cc2F)c(Br)c1=O" . Reported %Inh?
Output line: 0

Input line: Item under review: "O=C(c1ccc(-c2cc(-c3c[nH]nc3-c3ccccn3)ccn2)cc1)N1CCOCC1" . Reported %Inh?
Output line: 14

Input line: Item under review: COc1ccc(Nc2nccc(N3CCC(NC(=O)Nc4cccc(C(C)=O)c4)C3)n2)cc1 (centres unmarked) . Reported %Inh?
Output line: 0

Input line: Item under review: NCC(NC(=O)c1cc(-c2cn[nH]c2)c(-c2ccnc3[nH]ccc23)s1)c1ccccc1.O=C(O)C(F)(F)F.O=C(O)C(F)(F)F (centres unmarked) . Reported %Inh?
Output line: 64

Input line: Item under review: "N#Cc1c(N2CCOCC2)sc(-c2ccn[nH]2)c1-c1ccc(Cl)cc1" . Reported %Inh?
Output line: 0

Input line: Item under review: "Cc1nnc(-c2ccc(C)c(-c3ccc(C(=O)Nc4ccc(NS(C)(=O)=O)cc4)cc3)c2)o1" . Reported %Inh?
Output line: 0

Input line: Item under review: "O=C(NCCNc1ccnc(Nc2ccc(F)cc2)n1)c1cc2ccccc2s1" . Reported %Inh?
Output line: 0

Input line: Item under review: "CC(C)(CN)c1nc(-c2ccc(Cl)c(O)c2)c(-c2ccncc2)[nH]1.O=C(O)C(F)(F)F" . Reported %Inh?
Output line: 0

* * *

So I've got a bunch of molecules here, and I need their %Inh values.
# Tested on: CAMK2B
# Applied Conditions: concentration: 1 μM, replicates: in singlicate; n = 1
Please don't drop the unit; write it after the number.

Input line: Observed %Inh on CAMK2B for "O=C(Nc1n[nH]c2cc(-c3cccc(F)c3)ccc12)C1CC1" , please.
Output line: 1%

Input line: Observed %Inh on CAMK2B for "NS(=O)(=O)c1cccc(-c2ccc3nccc(-c4cccc(S(N)(=O)=O)c4)c3c2)c1" , please.
Output line: 0%

Input line: Observed %Inh on CAMK2B for Cc1nnc(-c2ccc3ncc(-c4ccc(S(C)=O)cc4)n3c2)o1 (stereo not drawn) , please.
Output line: 0%

* * *

# System: CHEK2
# Applied Conditions: concentration: 1 μM, replicates: in singlicate; n = 1
So I've got a bunch of compounds here, and I need their %Inh values.
Output spec: scalar in %, unitless text.

Input line: Observed %Inh on CHEK2 for "O=c1cc(N2CCOCC2)nc2n(Cc3cccc(Cl)c3Cl)c(C3CC3)nn12" , please.
Output line: 0

Input line: Observed %Inh on CHEK2 for "O=C1Cc2cc(Nc3nc(NCc4cccc(S(=O)(=O)C(F)(F)F)c4)ncc3C(F)(F)F)ccc2N1" , please.
Output line: 0

Input line: Observed %Inh on CHEK2 for "CC(=O)Nc1ccc(COc2ccc(Nc3ccnc4cc(-c5ccccn5)ccc34)cc2)cc1.Cl" , please.
Output line: 29

Input line: Observed %Inh on CHEK2 for "COc1ccc(Nc2ncc(C#N)c(Nc3ccccc3C(N)=O)n2)cc1N1CCN(C)CC1.Cl" , please.
Output line: 78

Input line: Observed %Inh on CHEK2 for "O=C(c1ccc(-c2cc(-c3c[nH]nc3-c3ccccn3)ccn2)cc1)N1CCOCC1" , please.
Output line: 0

Input line: Observed %Inh on CHEK2 for "Cc1c2ccc(N(C)c3ccnc(Nc4cccc(S(N)(=O)=O)c4)n3)cc2nn1Cc1ccccc1.Cl.Cl" , please.
Output line: 8

* * *

# Test system: CSNK2A2
# Applied Conditions: concentration: 1 μM, replicates: in singlicate; n = 1
Recorded Metric: %Inh (%)
Output spec: scalar in %, unitless text.

Input line: Item under review: c1ccc(-c2cc(-c3c[nH]nc3-c3ccccn3)ccn2)cc1 [GW576604] . Reported %Inh?
Output line: 15

Input line: Item under review: O=C(NCCNc1ccnc(Nc2ccc(F)cc2)n1)c1cc2ccccc2s1 [GSK1379874] . Reported %Inh?
Output line: 19

Input line: Item under review: Cc1nnc(-c2ccc(C)c(-c3ccc(C(=O)Nc4ccc(NS(C)(=O)=O)cc4)cc3)c2)o1 [GW702865] . Reported %Inh?
Output line: 15

Input line: Item under review: NS(=O)(=O)c1cccc(-c2ccc3ncc(N4CCOCC4)nc3c2)c1 [GSK1535721] . Reported %Inh?
Output line: 18

Input line: Item under review: "CCc1nc(-c2cccc(C)c2)c(-c2ccnc(NCc3ccccc3)c2)s1" . Reported %Inh?
Output line: 0

Input line: Item under review: "Cn1ccc2ncnc(Oc3ccc(NC(=O)Nc4ccncc4)c(Cl)c3)c21" . Reported %Inh?
Output line: 0

Input line: Item under review: O=C(NCCNc1ccnc(Nc2ccc(F)cc2)n1)Nc1ccccc1F [GSK1379880] . Reported %Inh?
Output line: 3

* * *

So I've got a bunch of compounds here, and I need their %Inh values.
# System: LTK
# Applied Conditions: concentration: 1 μM, replicates: in singlicate; n = 1
Output spec: scalar in %, unitless text.

Input line: Item under review: "NS(=O)(=O)c1cccc(-c2ccc3nccc(-c4cccc(S(N)(=O)=O)c4)c3c2)c1" . Reported %Inh?
Output line: 0

Input line: Item under review: "N#Cc1c(N2CCOCC2)sc(-c2ccn[nH]2)c1-c1ccc(Cl)cc1" . Reported %Inh?
Output line: 17

Input line: Item under review: "c1ccc(-c2n[nH]cc2-c2ccnc3ccccc23)nc1" . Reported %Inh?
Output line: 13

Input line: Item under review: "CCc1ccnc(/C=C/c2n[nH]c3cc(Sc4ccccc4C(=O)NC)ccc23)c1" . Reported %Inh?
Output line: 6

Input line: Item under review: "CSc1ccc(-c2cc3ncnc(SCC(=O)O)c3s2)cc1" . Reported %Inh?
Output line: 17

Input line: Item under review: Cc1nnc(-c2ccc3occ(-c4ccc(C(C)O)cc4)c3c2)o1 (stereo not shown) . Reported %Inh?
Output line: 0

Input line: Item under review: "O=C(NCCNc1ccnc(Nc2ccc(F)cc2)n1)Nc1ccccc1F" . Reported %Inh?
Output line: 0

Input line: Item under review: "COc1ccc(Nc2ncc(C#N)c(Nc3ccccc3C(N)=O)n2)cc1N1CCN(C)CC1.Cl" . Reported %Inh?
Output line: 89

Input line: Item under review: "CC(C)(C)n1cnc2c(N)ncnc21" . Reported %Inh?
Output line: 0

Input line: Item under review: "CN(C1=C(c2ccccc2)C(=O)NC1=O)c1ccccc1" . Reported %Inh?
Output line: 6
